System: T cell lines obtained from HDM allergic individuals and non-allergics
experimentalDetails: In vitro T cell proliferation test in T cell lines (Example 3)
Format: cell-based, human
testSettings: T cell lines from non-allergics (n=8); 0.5 or 2 ug/ml; 72 h
quantityName: % responders of in-vitro T cell proliferation test, Non-allergics (%)

| molecule | u | valueMeasured |
| --- | --- | --- |
| A019: house dust mite protein; SEQ ID NO: 1 (Der f), 4 (Der p), 315 (Blo t) (protein) QVYCNGAAIVSAARSQIGVPYSWGGGGIHGKSRGIGEGANTVGFDCSGLAQYSVYQGTHKVLARVASGQYSDPKCHHVAYGSHQPGDLVFFGNPIHHVGIVSAHGRMINAPHTGTNVREENIWSDHIANVARCW | % | 13 |
| A020: house dust mite protein; SEQ ID NO: 15 (Der f), 16 (Der p); Blo t SEQ ID NO: 316 printed as A0019 (protein) MSKPIFYYHPFSGPCRTVSTVAKILNVDMEMKKLDLLTKEHLNPEFLKVNPFHKVPTFVDSDGFVVDESRVIAMYLVESRKPDSFLYPKNDLKKRIQIDRWLHYDINLSTTISAPMFCVFRGHQVQDYQVEQGKETLKTLDGVMQSFEGKFLTGADQFTLADIAMYFSLNTMEVYPKYFKFDDYPNLKSWYHRVAEALKQYDTEGTIPKAIETMKQFIQQRAAEAEKH | % | 25 |
| Derf2: major house dust mite allergen, group 2, Dermatophagoides farinae; control (protein, UniProt Q00855 18-146, looked up) Mite group 2 allergen Der f 2: DQVDVKDCANNEIKKVMVDGCHGSDPCIIHRGKPFTLEALFDANQNTKTAKIEIKASLDGLEIDVPGIDTNACHFMKCPLVKGQQYDIKYTWNVPKIAPKSENVVVTVKLIGDNGVLACAIATHGKIRD | % | 14 |
| Derp2: major house dust mite allergen, group 2, Dermatophagoides pteronyssinus; control (protein, UniProt P49278 18-146, looked up) Mite group 2 allergen Der p 2: DQVDVKDCANHEIKKVLVPGCHGSEPCIIHRGKPFQLEAVFEANQNTKTAKIEIKASIDGLEVDVPGIDPNACHYMKCPLVKGQQYDIKYTWNVPKIAPKSENVVVTVKVMGDDGVLACAIATHAKIRD | % | 0 |
| A016: house dust mite protein; SEQ ID NO: 28 (Der f), 29 (Der p) (protein) MVKIGINGFGRIGRLVLRAAIKKGVEVAAINDPFLDVKYMVYMFKFDSTHGRYQGEVKEEGGLLVVDGQKIQVFQERNPAEIPWGKVGADYVVESTGVFTTIEKAKAHLAGGAKKVIISAPSADAPMYVMGVNHDKYDPKQQIISNASCTTNCLAPLAKVINDKFGIENGLMTTVHAITATQKTVDGPSGKLWRDGRGAGQNIIPASTGAAKAVGKVIPELNGKLTGMALRVPVPDVSVVDLTVTLKNPASYDEIKAAVKAAAESDHWKGILEYTDEEVVSSDFISDTHSSIFDAKAGIALTPTFVKLIAWYDNEFGYSNRVVDLIKYVASK | % | 0 |
| Derf1: major house dust mite allergen, group 1, Dermatophagoides farinae; control (protein, UniProt P16311 99-321, looked up) Peptidase 1: TSACRINSVNVPSELDLRSLRTVTPIRMQGGCGSCWAFSGVAATESAYLAYRNTSLDLSEQELVDCASQHGCHGDTIPRGIEYIQQNGVVEERSYPYVAREQRCRRPNSQHYGISNYCQIYPPDVKQIREALTQTHTAIAVIIGIKDLRAFQHYDGRTIIQHDNGYQPNYHAVNIVGYGSTQGDDYWIVRNSWDTTWGDSGYGYFQAGNNLMMIEQYPYVVIM | % | 0 |
| A024: house dust mite protein; SEQ ID NO: 11 (Der f), 12 (Der p), 318 (Blo t) (protein) MSISAHGGGLVNGIAGMENKFTVFTSGKPVSGLTVAFEGPTKPEINFNSTKDGSVDVGYIPKAGGQYKIHIKYEGKEIVGSPFKCNISGDESTHRKLTEKVKVGGPNISTGKVNQDNQLTIDCKEAGITGGISFAMEGPAKVEVSFRNNNDGTITVIYKPPTPGDYKLHLKFNDIHLPGSPYPIVVSA | % | 0 |
| A023: house dust mite protein; SEQ ID NO: 23 (Der f), 24 (Der p) (protein) DPVQQRPTLRGVTVRVGPFVKENNGKFEGFIPDLVQAISEKVGFDYTLYLSPDGRYGNVISDGNVTGMIGEVYNKKADFAAADLTMTEARENYITFTEPFMINQLAALIRREDAEGLNTLEDLAKAQETFPKRKRIVLGTLRNGATNYFLSKSDDPLAKKIYEQIKADDQSVVKSISEGVERVDKQGGYAFIMESASAEHEIANNCKLTMLLDWRNLFPRKYAFALPKDSPYLEHFNNAIKQLNSEGKIAELRRKYWANNCAENKTKDDKN | % | 0 |
| A018: house dust mite protein; SEQ ID NO: 5 (Der f), 6 (Der p), 314 (Blo t) (protein) MVKAVVVLKGDPNVSGTIFFEQQDNGPVKVTGSVQGLKPGLHGFHVHEFGDNTNGCTSAGAHYNPLNKTHGAPNDEERHVGDLGNIEANDKGVANVVIEDSLISLTGEKSIVGRSLVVHADPDDLGRGGHELSKTTGNAGGRLVCGVIGVTK | % | 0 |

The reported numbers originate from patent US10556936B2.
